B1: TPR t1 (parent)
chain: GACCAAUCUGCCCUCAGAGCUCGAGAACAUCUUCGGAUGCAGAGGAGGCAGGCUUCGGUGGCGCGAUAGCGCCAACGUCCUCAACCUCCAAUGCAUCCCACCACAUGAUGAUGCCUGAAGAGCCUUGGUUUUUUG

- Variants of: B1
- protocolDescription: polymerase ribozyme fitness, log enrichment relative to wild type (log ratio); higher = more active; in vitro selection for triplet polymerase activity
propertyLabel: polymerase ribozyme fitness (log ratio)
# answer = number (no unit)

Examples with their reported polymerase ribozyme fitness (log ratio) follow.
{"mutationName": "G63C C85A", "propertyLabel": "polymerase ribozyme fitness (log ratio)", "measured": -3.22}
{"mutationName": "A41C C76A C79A U112A U125C", "propertyLabel": "polymerase ribozyme fitness (log ratio)", "measured": -2.16}
{"mutationName": "G60A C99U", "propertyLabel": "polymerase ribozyme fitness (log ratio)", "measured": -2.87}
{"mutationName": "A46G C64U G110U C123G", "propertyLabel": "polymerase ribozyme fitness (log ratio)", "measured": -1.18}
{"mutationName": "G10U A26U G39C C89U", "propertyLabel": "polymerase ribozyme fitness (log ratio)", "measured": -5.19}

Ask: What value of polymerase ribozyme fitness (log ratio) has been reported for the following variant? U92A C104U
Reply: -3.56

Ask: So what's the measured polymerase ribozyme fitness (log ratio) for this one? A16C C49U G60U U78A
Reply: -3.42

Ask: Returns the measured polymerase ribozyme fitness (log ratio) for the input variant. Input: A29U A46C
Reply: -3.27

Ask: Requested read-out: polymerase ribozyme fitness (log ratio). Entry: C3G C102A
Reply: -4.71

Ask: Any idea what polymerase ribozyme fitness (log ratio) was measured for G93C U96C G110A A118C ?
Reply: -2.57

Ask: Query: polymerase ribozyme fitness (log ratio); subject: C28U G61C
Reply: -4.7

Ask: State the recorded polymerase ribozyme fitness (log ratio) for this entry: A5C C53G U92G G117C U129C U133C
Reply: -5.53

Ask: Name the recorded polymerase ribozyme fitness (log ratio) for G47U U125G .
Reply: -2.32
